These measurements were taken from patent US10544146B2.

test system: metallo β-lactamase producing bacteria; assay: MIC in combination with various antibiotics against metallo β-lactamase producing bacteria (Tables 10-12); type: cell-based; settings: Providencia stuartii, Providencia stuartii isolate 26582, VIM-1; substance alone
Quantity Measured: MIC

Known results for compounds:
compound="CC(=O)NNC(=O)[C@@H]1CC[C@@H]2CN1C(=O)N2OS(=O)(=O)O [Ex. 40]" quantity_measured=MIC reported_value="> 64 µg/mL"
compound="C[C@H]1[C@H](NC(=O)/C(=N\\OC(C)(C)C(=O)O)c2csc(N)n2)C(=O)N1S(=O)(=O)O [Aztreonam, aztreonam]" quantity_measured=MIC reported_value="32 µg/mL"
compound="O=C(NO[C@H]1CCNC1)[C@@H]1CC[C@@H]2CN1C(=O)N2OS(=O)(=O)O [Ex. 2]" quantity_measured=MIC reported_value="> 64 µg/mL"

Shift focus to the following entry.
Could you tell me which MIC is on file for O=C(NO[C@H]1CCCNC1)[C@@H]1CC[C@@H]2CN1C(=O)N2OS(=O)(=O)O [Ex. 4] ?
> 64 µg/mL
